// data source = PubChem BioAssay (Tox21)

Target: Voltage-gated inwardly rectifying potassium channel KCNH2 (Homo sapiens)
Test: Human Ether-a-go-go-Related Gene (hERG) channel small molecule antagonists: fluorescence cell-based qHTS assay (AID 1671200); also: nearly all actives have a fitted effect of over 50% in size
Conditions: hERG-U2OS cells, FluxOR thallium flux fluorescence; series mostly up to 76.8 µM
Records with an inconclusive call do not appear. Calls of active or inactive are those of the source. Calls follow the shape of the dose curve; as a rule, active = well fitted inhibition curve with a large enough effect in the repeat runs; inconclusive = weak or mixed curves; inactive = flat fitted curve, though single readings scatter.
Write down one outcome, taken from YES (active), NO (inactive)

CC(O)CN (stereo not given) :: NO
Cc1cc(C)n(CO)n1 :: NO
O=C(c1ccc(Cl)cc1)c1ccc(Cl)cc1 :: NO

Task: // outcome(item) with item = CC(=O)c1cccnc1
Output: NO

Task: Write down the call the test reported for this molecule. Item: O=C1c2ccccc2C(=O)C1c1ccc2ccccc2n1
Output: NO

Task: Hello, I am checking results. What call was entered for O=C(OCCN1CCOCC1)c1cccnc1Nc1cccc(C(F)(F)F)c1 ?
Output: YES

Task: What call does the record list for CNc1ccccc1 ?
Output: NO

Task: What was the test verdict on CC(C(=O)O)c1ccc2c(c1)Cc1cccnc1O2 (stereo not given) ?
Output: NO

Task: Could you please tell me the result logged for CC(CCl)OC(C)CCl (stereo not given) in this assay?
Output: NO

Task: Could you check what this test reported for Cc1ccccc1CCO ?
Output: NO

Task: Status in this test for Cc1c(N=C=O)cccc1N=C=O ?
Output: NO

Task: Please share the test call associated with O=C1CCCN1CCO .
Output: NO

Task: For C[C@H](N)C(=O)N[C@@H](C)C(=O)NC1[C@H]2CN(c3nc4c(cc3F)c(=O)c(C(=O)O)cn4-c3ccc(F)cc3F)C[C@@H]12 (stereo not given in full) , which call appears in the assay record?
Output: NO

Task: Can you look up the reported call for CCCCCCCCCCCCCCCCN for me?
Output: NO

Task: Dear all, I need the recorded test outcome for CC(C)CCCCCCCOC(=O)c1ccc(C(=O)OCCCCCCCC(C)C)c(C(=O)OCCCCCCCC(C)C)c1 , thank you.
Output: NO

Task: Test call, this molecule: Nc1ccc(C(=O)Oc2ccccc2)c(O)c1
Output: NO

Task: I'd appreciate the recorded outcome for CO[C@@H]1[C@@H](O[C@@H]2O[C@H](C)[C@@H](O[C@H]3C[C@@](C)(O)[C@@H](O)[C@H](C)O3)[C@H](N(C)C)[C@H]2O)[C@@H](CC=O)C[C@@H](C)[C@@H](O[C@@H]2CC[C@H](N(C)C)[C@@H](C)O2)/C=C/C=C/C[C@@H](C)OC(=O)C[C@H]1OC(C)=O from this test.
Output: NO

Task: I'd appreciate the recorded outcome for Clc1nc2ccccc2nc1Cl from this test.
Output: NO

Task: What call does the record list for C=CC(C)(O)CC/C=C(/C)CCC=C(C)C (stereo not given) ?
Output: NO

Task: Write down the call the test reported for this molecule. Item: Cc1cc(N)n(-c2ccccc2)n1
Output: NO

Task: Field: outcome | Entry: CC(=O)OCC(=O)[C@@]1(O)CC[C@H]2[C@@H]3CCC4=CC(=O)C=C[C@]4(C)[C@@]3(F)[C@@H](O)C[C@@]21C
Output: NO

###

Test: qHTS assay to identify small molecule antagonists of the thyroid receptor (TR) signaling pathway - cell viability counter screen (AID 743064); also: nearly all actives have a fitted effect of over 50% in size
Conditions: GH3.TRE-Luc viability, CellTiter-Fluor, 24 h; series mostly up to 70.3 µM
Records with an inconclusive call do not appear. Active and inactive are the calls of the source. Calls follow the shape of the dose curve; as a rule, active = well fitted cell-killing curve with a large enough effect in the repeat runs; inconclusive = weak or mixed curves, or effect the other way; inactive = no such curve, though single readings can be large or run the other way.
Outcome (select one): active, inactive

Take a look at these entries with their results.
OCC(O)c1ccccc1 (centres undefined) :: inactive
CCCCCO :: inactive
C=CC(=O)NC(C)(C)C :: inactive
CCCC1CCCC(=O)O1 (centres undefined) :: inactive
COc1ccc(/C=C/S(=O)(=O)NC(=O)c2ccc(C)cc2Cl)cc1 :: inactive
CCCCCCCCCCCCN1CCOCC1 :: inactive
COC(=O)/C=C/C(C)=C\C=C\C(C)=C\C=C\C=C(C)\C=C\C=C(C)\C=C\C(=O)O :: inactive
COc1ccc(C(=O)Nc2ccccc2)cc1[N+](=O)[O-] :: inactive
C/C(=C\C(C)CC(C)CC(C)C)C1CC(=O)OC1=O (centres undefined) :: inactive
C=Cc1ccc(C=C)cc1 :: inactive

Task: How was O=C1c2ccccc2C(=O)C1c1ccc2cc(S(=O)(=O)O)cc(S(=O)(=O)O)c2n1 classified in this test?
Output: active

Task: Given CCCCCCOC(=O)c1ccccc1 , state the outcome it received in this test.
Output: inactive

Task: Please indicate how the test categorized CCCCCCCCCCCCSC#N .
Output: inactive

Task: For this molecule, state the assay outcome: NC(=O)c1ccccc1C(N)=O
Output: inactive

###

Experiment: A CellTox Green Cytotoxicity Assay to monitor cytotoxicity in HepG2 cells - 40 hour (AID 1224879); also: nearly all actives have a fitted effect of over 40% in size
Details: CellTox Green fluorescence; series mostly up to 76.8 µM
Inconclusive results are not listed. The source made the active and inactive calls. The call rests on the fitted dose curve; in most records, active means well fitted activation curve with a large enough effect in the repeat runs; inconclusive means weak or mixed curves; inactive means flat fitted curve, though single readings scatter.
Returns: one label drawn from Yes (active), No (inactive)

Reference set (3 entries):
CCCC(=O)OCc1ccccc1 :: No
CC(C)(C)NCC(O)COc1ccc(NC(=O)NC2CCCCC2)cc1 (stereo not drawn) :: No
O=C(Cl)c1cc(Cl)cc(Cl)c1 :: No

Task: Call for entry C=Cc1ccc(C=C)cc1 :
Output: No

###

Assay: qHTS assay to identify small molecule agonists of the sonic hedgehog signaling (Shh) pathway (AID 1259368);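 also: NIH/3T3-derived 3T3Gli1-Luc cells carrying a stable Gli1-driven firefly luciferase reporter; nearly all actives have a fitted effect of over 15% in size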
Details: NIH/3T3 Gli1-Luc reporter, luciferase, 24 h; series mostly up to 92.4 µM
Calls of active or inactive are those of the source. Calls follow the shape of the full dose curve.
MEASUREMENT KIND: activity change

Examples with answers:
CCOC(C)OCC :: inactive
CC(C(=O)O)c1ccc(/C=C2\CCCCC2=O)cc1 (stereo not given) :: inactive
CCC(=O)O[C@@H]1C[C@H]2CC[C@]1(C)C2(C)C :: inactive
CC(=O)c1ccc(Cl)c(Cl)c1Cl :: inactive

For the next question, use this compound.
Task: Using known records, supply activity change for O=C(O)COCC(=O)O
Output: inactive

###

Molecular target: Bile acid receptor (Homo sapiens) (UniProt Q96RI1)
Sequence (Q96RI1 whole entry, looked up): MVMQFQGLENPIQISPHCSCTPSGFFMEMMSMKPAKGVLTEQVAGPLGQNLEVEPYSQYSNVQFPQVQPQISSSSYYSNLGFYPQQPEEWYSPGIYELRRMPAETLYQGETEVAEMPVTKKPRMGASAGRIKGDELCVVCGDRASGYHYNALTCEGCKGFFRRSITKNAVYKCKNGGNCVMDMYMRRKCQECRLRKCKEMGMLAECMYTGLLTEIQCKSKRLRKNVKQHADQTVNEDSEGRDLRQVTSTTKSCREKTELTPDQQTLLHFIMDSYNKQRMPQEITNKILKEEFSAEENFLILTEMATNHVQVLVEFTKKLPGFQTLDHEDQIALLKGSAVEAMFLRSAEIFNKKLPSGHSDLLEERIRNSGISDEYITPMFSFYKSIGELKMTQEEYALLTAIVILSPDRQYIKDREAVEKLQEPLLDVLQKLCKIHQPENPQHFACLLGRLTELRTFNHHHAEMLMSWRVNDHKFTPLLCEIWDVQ
Experiment: qHTS assay to identify small molecule agonists of the farnesoid-X-receptor (FXR) signaling pathway (AID 743220)
Settings: HEK293T FXR-UAS-bla, beta-lactamase FRET ratio, 16 h; series mostly up to 62.6 µM
Records with an inconclusive call do not appear. Active and inactive are the calls of the source. The call rests on the fitted dose curve; in most records, active means well fitted activation curve with a large enough effect in the signal ratio in the repeat runs (not every such curve was filed as active); inconclusive means weak or mixed curves, or effect the other way; inactive means flat fitted curve, though single readings scatter; the % refers to the signal ratio.
MEASUREMENT KIND: activation

Examples with answers:
c1ccc(-c2ccc(-c3ccccc3)cc2)cc1 :: inactive
OCCc1ccncc1 :: inactive
CCC[Si](OC)(OC)OC :: inactive
O=C(OCCOCCOCCOC(=O)c1ccccc1)c1ccccc1 :: inactive
O=P(c1ccccc1)(c1ccccc1)c1ccccc1 :: inactive
Oc1ccc(Oc2ccccc2)cc1 :: inactive

Task: Read off the recorded activation for CCCCCO
Output: inactive

Task: Indicate the recorded activation value for this molecule: CC(=O)S[C@H](C(=O)N[C@H]1Cc2ccccc2[C@H]2CCC[C@@H](C(=O)O)N2C1=O)C(C)C
Output: inactive

Task: Identify the reported activation for the following entry. Cc1c(-c2cccnc2)c2ccccc2n1CCCCC(=O)O
Output: inactive

Task: Indicate its recorded activation; the molecule in question is NC(=O)c1cc[n+](CC2=C(C(=O)[O-])N3C(=O)[C@@H](NC(=O)Cc4cccs4)[C@H]3SC2)cc1
Output: inactive

Task: Supply reported activation belonging to this molecule: O=C(O)c1c2ccccc2cc2ccccc12
Output: inactive

Task: Answer with the recorded activation of O=C(O)c1ccncc1 only.
Output: inactive

Task: Identify the reported activation for the following entry. CC(C)=CCC/C(C)=C/C=N/O
Output: inactive

###

Molecular target: Cytochrome P450 2C9 (Homo sapiens)
Assay: Cytochrome P450 Family 2 Subfamily C Member 9 (CYP2C9) small molecule antagonists: luciferase reporter qHTS assay (AID 1671198); also: nearly all actives have a fitted effect of over 50% in size
Conditions: P450-Glo CYP2C9 enzyme assay, luciferin luminescence; series mostly up to 115 µM
Inconclusive results are not listed. The source made the active and inactive calls. Calls follow the shape of the dose curve; as a rule, active = well fitted inhibition curve with a large enough effect in the repeat runs; inconclusive = weak or mixed curves; inactive = no such curve, though single readings can be large or run the other way.
Form entry, call: pick from Yes (active), No (inactive)

These recorded examples may help you get a feel for the data.
OCC(O)c1ccccc1 (centres undefined) :: No
CCCOC(C)=O :: No
O=C(O)c1ccc(O)c(O)c1 :: Yes

Task: Tell me the recorded outcome of this test for COc1ccc(/C=C/c2cc(OC)cc(=O)o2)cc1 .
Output: No

Task: What outcome does the record of this test show for NCCOCCOCCN ?
Output: No

Task: Test call, this compound: O=P(c1ccccc1)(c1ccccc1)c1ccccc1
Output: Yes

Task: Assay outcome for CC(COc1ccccc1)NC(C)C(O)c1ccc(O)cc1 (centres undefined) : what was it?
Output: Yes

Task: Check the results log: what was the call for O=C(O)c1cccc(C(=O)O)c1C(=O)O ?
Output: No

Task: // param item: FC1(F)C(F)(F)C(F)(F)C2(F)C(F)(C1(F)F)C(F)(F)C(F)(F)C1(F)C(F)(F)C(F)(F)C(F)(F)C(F)(F)C12F (centres undefined) ; yields the recorded call
Output: No

Task: Assay result, entry CCCCCCCCCCCCSCCOCCO — outcome?
Output: Yes

Task: Tell me the assay call for CC(=O)CC/C=C(\C)CC/C=C(\C)CC/C=C(\C)CCC=C(C)C please.
Output: Yes

Task: Outcome logged for C=CC(=O)OCCCCCCCCCC in this assay:
Output: No

Task: Please indicate how the test categorized CCCCCCCCOCCCN .
Output: Yes

Task: Please share the test call associated with FC(F)(Cl)C(F)(Cl)Cl .
Output: No

Task: Kindly provide the recorded test outcome for the following compound: O=C(OCCCCCOC(=O)c1ccccc1)c1ccccc1
Output: Yes
